The compounds listed here are annotated with their inhibition.
target: Serine/threonine-protein kinase pim-1 (Homo sapiens); conditions: at 1 µM

mol-smiles: CCS(=O)(=O)c1ccc(OC)c(Nc2ncc(-c3cccc(C(C)=O)c3)o2)c1
system-name: Serine/threonine-protein kinase pim-1 (Homo sapiens)
inhibition / %: 1.66

mol-smiles: CS(=O)(=O)CCNCc1ccoc1-c1ccc2ncnc(Nc3ccc(OCc4ccccc4)cc3)c2c1
system-name: Serine/threonine-protein kinase pim-1 (Homo sapiens)
inhibition / %: -0.94

mol-smiles: CS(=O)(=O)CCNCc1ccc(-c2ccc3ncnc(Nc4ccc(OCc5ccccc5)cc4)c3c2)o1
system-name: Serine/threonine-protein kinase pim-1 (Homo sapiens)
inhibition / %: 1.03

mol-smiles: O=C(Nc1n[nH]c2nnc(-c3cccnc3)cc12)C1CC1
system-name: Serine/threonine-protein kinase pim-1 (Homo sapiens)
inhibition / %: 74.5

mol-smiles: COc1cc2c(cc1Nc1nc(Nc3cccc(F)c3C(N)=O)c3cc[nH]c3n1)N(C(=O)CN1CCN(C(C)C)CC1)CC2
system-name: Serine/threonine-protein kinase pim-1 (Homo sapiens)
inhibition / %: 0.21

mol-smiles: OCCCNc1nccc(-c2c(-c3ccc(F)cc3)nn3cc(C(F)(F)F)ccc23)n1
system-name: Serine/threonine-protein kinase pim-1 (Homo sapiens)
inhibition / %: 1.6

mol-smiles: Fc1cccc(COc2ccc(Nc3ncncc3C#Cc3ccccc3)cc2Cl)c1
system-name: Serine/threonine-protein kinase pim-1 (Homo sapiens)
inhibition / %: 1.07

mol-smiles: COC(=O)Nc1nc2cc(Oc3ccc(NC(=O)Nc4ccccc4)cc3)ccc2[nH]1
system-name: Serine/threonine-protein kinase pim-1 (Homo sapiens)
inhibition / %: 0.02

mol-smiles: O=C(O[C@H]1CN[C@H](C#Cc2cc3ncnc(Nc4ccc5c(ccn5Cc5cc(F)ccc5F)c4)c3s2)C1)N1CCOCC1
system-name: Serine/threonine-protein kinase pim-1 (Homo sapiens)
inhibition / %: 0.83

mol-smiles: CS(=O)(=O)Nc1ccc(-c2cc(-c3ccccc3)cc(C(N)=O)c2N)cc1
system-name: Serine/threonine-protein kinase pim-1 (Homo sapiens)
inhibition / %: 1.67

mol-smiles: CCn1c(-c2nonc2N)nc2cncc(C(=O)NCCNC)c21
system-name: Serine/threonine-protein kinase pim-1 (Homo sapiens)
inhibition / %: 87

mol-smiles: NS(=O)(=O)c1cccc(N/C=C2\C(=O)Nc3ccccc32)c1
system-name: Serine/threonine-protein kinase pim-1 (Homo sapiens)
inhibition / %: 0.73

mol-smiles: CCCNc1cccc(-n2ncc3c(N/N=C/c4ccncc4)ncnc32)c1
system-name: Serine/threonine-protein kinase pim-1 (Homo sapiens)
inhibition / %: 1.01

mol-smiles: Cc1c2ccc(N(C)c3ccnc(Nc4cccc(S(N)(=O)=O)c4)n3)cc2nn1C
system-name: Serine/threonine-protein kinase pim-1 (Homo sapiens)
inhibition / %: 1.01

mol-smiles: O=C1Nc2ccccc2/C1=C1\CCc2cc(O)ccc21
system-name: Serine/threonine-protein kinase pim-1 (Homo sapiens)
inhibition / %: 10.2

mol-smiles: COc1ccc(-c2nn3ncccc3c2-c2ccnc(Nc3ccc(F)c(F)c3)n2)cc1
system-name: Serine/threonine-protein kinase pim-1 (Homo sapiens)
inhibition / %: 0.69

mol-smiles: COc1cc(N2CCN(C(C)C)CC2)ccc1Nc1nc(Nc2cccc(F)c2C(=O)O)c2cc[nH]c2n1
system-name: Serine/threonine-protein kinase pim-1 (Homo sapiens)
inhibition / %: 1.42

mol-smiles: c1cnn2ncc(-c3ccnc(NCCCN4CCOCC4)n3)c2c1
system-name: Serine/threonine-protein kinase pim-1 (Homo sapiens)
inhibition / %: 1.23

mol-smiles: CN(C)CCNC(=O)Nc1ccc(N(C)c2ccnc(Nc3ccc(CS(C)(=O)=O)cc3)n2)cc1
system-name: Serine/threonine-protein kinase pim-1 (Homo sapiens)
inhibition / %: 1.39

mol-smiles: c1ccc(-c2n[nH]cc2-c2ccnc(-c3ccc(OCCn4ccnc4)cc3)c2)nc1
system-name: Serine/threonine-protein kinase pim-1 (Homo sapiens);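 further: reported figures are mean percent inhibition of PIM1 kinase activity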
inhibition / %: 0.45
